Attribution: the supplement of paper PMC6522484

- Test system: HCT116
- Experimental Protocol: cell viability (CellTiter-Glo) relative to plate median (fraction of plate median); higher = more viable cells
- Setup Conditions: 5 µM; treatment time 24 h; reporter: TCF4/Wnt
T if cell viability is below 1. F if not; exact matches included in F.

Compound: CC(=O)N1CCN(c2ccc(OCC3COC(Cn4ccnc4)(c4ccc(Cl)cc4Cl)O3)cc2)CC1 (stereo unspecified)
Assayed Target: HCT116
Label Value: T
--
Compound: O=c1occ(C(O)CO)c2cccc(O)c12 (stereo unspecified) [Oospoglycol]
Assayed Target: HCT116
Label Value: T
--
Compound: COc1ccc([C@@H]2CC(=O)c3c(O)cc(O)cc3O2)cc1O
Assayed Target: HCT116
Label Value: T
--
Compound: N[C@@H](Cc1cc(I)c(Oc2ccc(O)c(I)c2)c(I)c1)C(=O)O [LIOTHYRONINE (L- isomer) SODIUM]
Assayed Target: HCT116
Label Value: F
--
Compound: CO/C=C/C(=O)c1cc2cnc3c(=N)cc(NC(C)=O)c([nH]1)c23 [Lymphostin]
Assayed Target: HCT116
Label Value: T
--
Compound: C[N+](C)(C)CC(O)CC(=O)[O-] (stereo unspecified)
Assayed Target: HCT116
Label Value: F
--
Compound: c1ccc(CC2=NCCN2)cc1
Assayed Target: HCT116
Label Value: F
--
Compound: Cc1cc(O)c2c(c1)C(=O)c1cccc(O)c1C2=O
Assayed Target: HCT116
Label Value: F
--
Compound: CC(C)C[C@@H](NC(=O)[C@H](C)NC(=O)CNC(=O)[C@@H](NC=O)C(C)C)C(=O)N[C@@H](C)C(=O)N[C@@H](C(=O)N[C@H](C(=O)N[C@H](C(=O)N[C@@H](Cc1c[nH]c2ccccc12)C(=O)N[C@H](CC(C)C)C(=O)N[C@@H](Cc1c[nH]c2ccccc12)C(=O)N[C@H](CC(C)C)C(=O)N[C@@H](Cc1c[nH]c2ccccc12)C(=O)N[C@H](CC(C)C)C(=O)N[C@@H](Cc1c[nH]c2ccccc12)C(=O)NCCO)C(C)C)C(C)C)C(C)C
Assayed Target: HCT116
Label Value: T
--
Compound: CC1CCc2cc(F)cc3c(=O)c(C(=O)O)cn1c23 (stereo unspecified)
Assayed Target: HCT116
Label Value: F
--
Compound: COc1ccc(OC)c(C(O)CNC(=O)CN)c1 (stereo unspecified)
Assayed Target: HCT116
Label Value: T
--
Compound: CC1=C(/C=C/C(C)=C/C=C/C(C)=C/CO)C(C)(C)CCC1
Assayed Target: HCT116
Label Value: F
--
Compound: CC1=C(C(=O)O)N2C(=O)[C@@H](NC(=O)[C@H](N)c3ccc(O)cc3)[C@H]2SC1
Assayed Target: HCT116
Label Value: T
--
Compound: CO[C@H]1/C=C/O[C@@]2(C)Oc3c(C)c(O)c4c(O)c(c5c(nc6cc(C)ccn65)c4c3C2=O)NC(=O)/C(C)=C\C=C\[C@H](C)[C@H](O)[C@@H](C)[C@@H](O)[C@@H](C)[C@H](OC(C)=O)[C@@H]1C
Assayed Target: HCT116
Label Value: F
--
Compound: COc1ccc2cc1Oc1ccc(cc1)C[C@H]1c3c(cc4c(c3Oc3cc5c(cc3OC)CCN(C)[C@@H]5C2)OCO4)CCN1C
Assayed Target: HCT116
Label Value: T
--
Compound: COc1c(O)cc2c(-c3ccccc3)cc(=O)oc2c1OC
Assayed Target: HCT116
Label Value: F
--
Compound: O=C(O)[C@@H](O)[C@H](O)[C@H](O)[C@@H](O)C(=O)O
Assayed Target: HCT116
Label Value: F
--
Compound: COc1c2ccoc2cc2oc(=O)ccc12
Assayed Target: HCT116
Label Value: T
--
Compound: CCC(=O)O[C@@H]1[C@@H](OC2C(C)/C=C/C(=O)OC(C)C(CO[C@@H]3O[C@H](C)[C@@H](OC(=O)CC)[C@@H](OC)[C@H]3OC)C3OC3/C=C/C(=O)C(C)(O)CC2C)O[C@@H](C)C[C@H]1OC (stereo partly specified) [Chalcomycin B]
Assayed Target: HCT116
Label Value: F
--
Compound: CC(=O)O[C@H]1CC[C@@]2(C)[C@@H](CC[C@@H]3[C@@H]2CC(=O)[C@]2(C)[C@@H]4[C@H](C[C@@H]32)O[C@]2(CC[C@@H](C)CO2)[C@H]4C)C1
Assayed Target: HCT116
Label Value: T
--
Compound: C[C@@H]1CC[C@@]2(OC1)O[C@H]1C[C@H]3[C@@H]4CC[C@@H]5C[C@@H](O)CC[C@]5(C)[C@H]4CC[C@]3(C)[C@H]1[C@@H]2C
Assayed Target: HCT116
Label Value: F
--
Compound: Nc1c(Br)cc(Br)cc1CN[C@H]1CC[C@H](O)CC1
Assayed Target: HCT116
Label Value: F
--
Compound: O=C1c2ccc(O)c(O)c2C(=O)c2c(O)ccc(O)c21
Assayed Target: HCT116
Label Value: T
--
Compound: C=C1C(=O)C[C@@H]2[C@@H]3CC[C@@H](C(=O)O)[C@@]12CC3(C)C [Terrecyclic Acid A]
Assayed Target: HCT116
Label Value: T
--
Compound: COc1cc(CO)cc2c1C(=O)c1c(O)cc(O)cc1C2=O [Carviolin]
Assayed Target: HCT116
Label Value: T
--
Compound: Cc1cn([C@H]2C[C@H](N=[N+]=[N-])[C@@H](CO)O2)c(=O)[nH]c1=O
Assayed Target: HCT116
Label Value: T
--
Compound: O=C(O)CN1C(=O)c2cccc3cccc(c23)C1=O
Assayed Target: HCT116
Label Value: T
--
Compound: CC1CC(OC(=O)C(O)c2ccccc2)CC(C)(C)N1C (stereo unspecified)
Assayed Target: HCT116
Label Value: F
